Reported CC50 values are given for each entry in this list.
System: Huh-7 HCV replicon cells
Assay: CC50 assay (CellTiter-Glo) in Huh-7 HCV replicon cells
Assay type: cell-based, human
Conditions: Table 1, 3 days

Recorded results for 10 compounds are shown here.
{"compound": "COc1ccc(-c2cnc3nc(N)nc(N4CCN(C(=O)Oc5ccc(C)cc5)CC4)c3n2)cc1OC [Example 59]", "tgt": "Huh-7 HCV replicon cells", "CC50": "< 10 µM"}
{"compound": "COc1ccc(-c2cnc3nc(N)nc(N4CCN(C(=O)NCCc5cccs5)CC4)c3n2)cc1OC [Example 115]", "tgt": "Huh-7 HCV replicon cells", "CC50": "< 10 µM"}
{"compound": "COc1ccc(-c2cnc3nc(N)nc(N4CCN(C(=O)c5cccs5)CC4)c3n2)cc1OC [Example 19]", "tgt": "Huh-7 HCV replicon cells", "CC50": "10 to 20 µM"}
{"compound": "COc1ccc(-c2cnc3nc(N)nc(N4CCN(C(=O)Oc5ccc(Cl)cc5)CC4)c3n2)cc1OC [Example 63]", "tgt": "Huh-7 HCV replicon cells", "CC50": "< 10 µM"}
{"compound": "COc1ccc(OC(=O)N2CCN(c3nc(N)nc4ncc(-c5ccc(OC)c(OC)c5)nc34)CC2)cc1 [Example 60]", "tgt": "Huh-7 HCV replicon cells", "CC50": "< 10 µM"}
{"compound": "CCCCCOc1ccc(C(=O)N2CCN(c3nc(N)nc4ncc(-c5ccc(OC)c(OC)c5)nc34)CC2)cc1 [Example 24]", "tgt": "Huh-7 HCV replicon cells", "CC50": "< 10 µM"}
{"compound": "COc1ccc(-c2cnc3nc(N)nc(N4CCN(CC5OCCO5)CC4)c3n2)cc1OC [Example 109]", "tgt": "Huh-7 HCV replicon cells", "CC50": "> 20 µM"}
{"compound": "COc1ccc(-c2cnc3nc(N)nc(N4CCN(C(=O)Nc5ccc(C#N)cc5)CC4)c3n2)cc1OC [Example 89]", "tgt": "Huh-7 HCV replicon cells", "CC50": "> 20 µM"}
{"compound": "COc1ccc(-c2cnc3nc(N)nc(N4CCN(C(=O)Nc5cccc(Cl)c5)CC4)c3n2)cc1OC [Example 122]", "tgt": "Huh-7 HCV replicon cells", "CC50": "< 10 µM"}
{"compound": "COc1ccc(-c2cnc3nc(N)nc(N4CCN(C(=O)Nc5ccc(Br)cc5)CC4)c3n2)cc1OC [Example 124]", "tgt": "Huh-7 HCV replicon cells", "CC50": "< 10 µM"}

Could you share which CC50 value was measured for COc1ccc(-c2cnc3nc(N)nc(N4CCN(C(=O)NCc5ccccc5)CC4)c3n2)cc1OC [Example 111] ?
10 to 20 µM

Consider the compound shown here: COc1ccc(-c2cnc3nc(N)nc(N4CCN(C(=O)/C=C/c5ccccc5)CC4)c3n2)cc1OC [Example 28] What is its recorded CC50?
< 10 µM

Consider the compound CCCCNC(=O)N1CCN(c2nc(N)nc3ncc(-c4ccc(OC)c(OC)c4)nc23)CC1 [Example 118] and give its measured CC50.
< 10 µM

Need CC50 of COc1ccc(-c2cnc3nc(N)nc(N4CCN(C(=O)Nc5ccc(F)c(Cl)c5)CC4)c3n2)cc1OC [Example 113] , thanks.
< 10 µM

Which CC50 is listed for COc1ccc(-c2cnc3nc(N)nc(N4CCN(C(=O)COc5ccccc5)CC4)c3n2)cc1OC [Example 1] ?
> 20 µM

What does the record list as CC50 for COc1ccc(-c2cnc3nc(N)nc(N4CCN(Cc5ccccn5)CC4)c3n2)cc1OC [Example 99] ?
10 to 20 µM

The values you see were collected from patent US20090318456A1.
